Values from patent US20240383984A1

Task for the reader: assign each of the following binders its reported Kd.
# measured_on: T1, human FcRH5 protein fragment (soluble) (human, UniProt Q96RD9 16-851)
# T1 construct: whole entry named; also called soluble human FcRH5; Human FcRH5 (BIACORE analyte)
# T1 sequence: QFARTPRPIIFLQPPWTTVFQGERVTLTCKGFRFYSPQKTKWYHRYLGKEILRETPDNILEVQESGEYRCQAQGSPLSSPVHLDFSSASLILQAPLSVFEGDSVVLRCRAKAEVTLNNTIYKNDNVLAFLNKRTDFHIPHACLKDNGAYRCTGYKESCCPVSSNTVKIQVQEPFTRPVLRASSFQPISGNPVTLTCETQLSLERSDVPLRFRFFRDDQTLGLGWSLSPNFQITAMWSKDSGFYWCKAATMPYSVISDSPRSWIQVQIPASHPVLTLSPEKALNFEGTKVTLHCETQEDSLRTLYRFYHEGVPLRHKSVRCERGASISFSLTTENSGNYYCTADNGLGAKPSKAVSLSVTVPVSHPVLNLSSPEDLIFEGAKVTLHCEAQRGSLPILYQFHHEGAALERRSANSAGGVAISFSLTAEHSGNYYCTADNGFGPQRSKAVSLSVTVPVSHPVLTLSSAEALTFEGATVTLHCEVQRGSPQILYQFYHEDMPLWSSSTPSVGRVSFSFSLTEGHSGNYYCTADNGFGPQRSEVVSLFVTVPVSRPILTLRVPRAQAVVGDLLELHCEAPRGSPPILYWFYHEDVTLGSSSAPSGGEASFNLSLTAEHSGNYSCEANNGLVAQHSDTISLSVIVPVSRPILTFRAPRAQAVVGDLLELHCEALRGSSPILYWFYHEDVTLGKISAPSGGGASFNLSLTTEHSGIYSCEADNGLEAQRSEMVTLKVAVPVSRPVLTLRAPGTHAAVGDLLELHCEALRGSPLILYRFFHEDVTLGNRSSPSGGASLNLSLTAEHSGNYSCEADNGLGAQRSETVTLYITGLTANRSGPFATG
# protocol_summary: BIACORE, human IgG1, soluble human FcRH5
Answers are plain numbers, in nM.

>>> test_result("1G7.v1E (antibody, human IgG1, V domains shown, human IgG1 with the light chain of hu1G7.v1; also called E (hu1G7.v1 heavy chain V37Y)) VH: EVQLVESGPGLVKPSETLSLTCTVSGFSLTRFGVHWYRQPPGKGLEWLGVIWRGGSTDYNAAFMSRLTISKDNSKNQVSLKLSSVTAADTAVYYCSNHYYGSSDYALDNWGQGTLVTVSS VL: DIQMTQSPSSLSASVGDRVTITCKASQDVSNIVVWFQQKPGKSPKLLIYSASYRYTGVPSRFSGSGSGTDFTLTISSLQPEDFATYYCQQHYSSPYTFGQGTKVEIK")
11

Value of measured Kd for the entry hu1G7.v91 (antibody, human IgG1, V domains shown) VH: EVQLVESGPGLVKPSETLSLTCTVSGFSTTRFGVHWVRQPPGKGLEWLGVIWRGGSTDYNAAFVSRLTISKDNSKNQVSLKLSSVTAADTAVYYCSNHYYGSSDYALDNWGQGTLVTVSS VL: DIQMTQSPSSLSASVGDRVTITCKASQDVSNLVVWFQQKPGKSPKLLIYSGSYRYSGVPSRFSGSGSGTDFTLTISSLQPEDFATYYCQQHYSPPYTFGQGTKVEIK : 0.7
